Where do the numbers come from? From patent US20230303681A1.

Below: a set of entries, each annotated with reported MFI.
Molecular target: T1, human TMEM106B (human, UniProt Q9NUM4 2-274)
T1 construct: Full-length, on transiently transfected HEK293 cells, or natively expressed on HeLa, U251 and A549 cells; also called huTMEM106B; huTMEM
Assay: FACS A549, 1 ug/ml

binder	MFI
anti-TMEM106B antibody TM-16 (antibody, V domains shown) VH: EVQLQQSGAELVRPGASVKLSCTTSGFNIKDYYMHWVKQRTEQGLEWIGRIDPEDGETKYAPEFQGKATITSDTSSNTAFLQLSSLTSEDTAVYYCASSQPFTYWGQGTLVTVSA VL: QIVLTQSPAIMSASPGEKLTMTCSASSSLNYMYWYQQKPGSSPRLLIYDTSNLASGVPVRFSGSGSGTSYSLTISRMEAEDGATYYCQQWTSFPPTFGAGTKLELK	409
anti-TMEM106B antibody TM-22 (antibody, V domains shown) VH: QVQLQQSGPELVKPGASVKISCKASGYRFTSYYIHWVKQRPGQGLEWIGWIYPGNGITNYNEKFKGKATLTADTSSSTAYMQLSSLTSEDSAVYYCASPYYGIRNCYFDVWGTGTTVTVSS VL: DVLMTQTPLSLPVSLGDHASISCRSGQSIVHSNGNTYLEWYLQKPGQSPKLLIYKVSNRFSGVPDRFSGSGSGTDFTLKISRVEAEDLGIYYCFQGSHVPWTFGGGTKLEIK	399
anti-TMEM106B antibody TM-45 (antibody, V domains shown) VH: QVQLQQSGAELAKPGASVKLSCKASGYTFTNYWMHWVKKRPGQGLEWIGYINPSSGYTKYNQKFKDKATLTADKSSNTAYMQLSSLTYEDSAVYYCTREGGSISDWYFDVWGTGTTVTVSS VL: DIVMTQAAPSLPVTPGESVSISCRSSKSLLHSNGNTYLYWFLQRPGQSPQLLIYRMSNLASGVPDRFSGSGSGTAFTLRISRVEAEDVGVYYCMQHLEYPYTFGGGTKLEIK	1860
anti-TMEM106B antibody TM-9 (antibody, V domains shown) VH: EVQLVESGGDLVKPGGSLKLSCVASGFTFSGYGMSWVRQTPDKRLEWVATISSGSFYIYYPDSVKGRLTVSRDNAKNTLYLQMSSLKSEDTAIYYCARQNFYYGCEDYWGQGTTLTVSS VL: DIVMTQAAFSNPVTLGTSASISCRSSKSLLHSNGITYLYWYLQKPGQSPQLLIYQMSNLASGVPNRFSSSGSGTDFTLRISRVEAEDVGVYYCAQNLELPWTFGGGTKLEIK	4880
anti-TMEM106B antibody TM-49 (antibody, V domains shown, mouse IgG from hybridoma) VH: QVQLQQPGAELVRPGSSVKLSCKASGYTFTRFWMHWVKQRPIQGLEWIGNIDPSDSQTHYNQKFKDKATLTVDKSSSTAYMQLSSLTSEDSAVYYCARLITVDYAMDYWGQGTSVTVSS VL: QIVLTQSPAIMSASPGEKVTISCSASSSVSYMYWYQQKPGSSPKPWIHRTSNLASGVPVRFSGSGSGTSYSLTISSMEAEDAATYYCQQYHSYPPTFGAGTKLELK	473
anti-TMEM106B antibody TM-52 (antibody, V domains shown, mouse IgG from hybridoma) VH: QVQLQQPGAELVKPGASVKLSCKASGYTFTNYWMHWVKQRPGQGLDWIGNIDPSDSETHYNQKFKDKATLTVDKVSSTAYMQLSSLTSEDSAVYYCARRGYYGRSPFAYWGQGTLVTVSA VL: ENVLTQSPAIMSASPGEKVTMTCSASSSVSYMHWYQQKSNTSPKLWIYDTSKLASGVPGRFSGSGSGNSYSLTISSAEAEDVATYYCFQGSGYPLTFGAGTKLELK	401
anti-TMEM106B antibody TM-14 (antibody, V domains shown, mouse IgG from hybridoma) VH: QVQLQQSGPELVRPGTSVKVSCKASGYAFTNYLIEWVKQRPGQGLEWIGVINPGGGNTDYSEKFKDKATLTADKSSNTAYIQLSSLTSEDSAVYFCARSPYSSYVGYAVDYWGQGTSVTVSS VL: DIQMTQSPSSLSASLGERVSLTCRASQDIGSNLNWLQQEPDGTIKRLIYATSSLDSGVPKRFSGSRSGSDYSLTISSLESEDFVVYYCLQYASSPRTFGGGTRLEIK	409
anti-TMEM106B antibody TM-12 (antibody, V domains shown) VH: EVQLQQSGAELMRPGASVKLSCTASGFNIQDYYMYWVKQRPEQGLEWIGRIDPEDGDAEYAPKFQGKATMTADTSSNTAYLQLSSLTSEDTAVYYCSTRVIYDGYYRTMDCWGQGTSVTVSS VL: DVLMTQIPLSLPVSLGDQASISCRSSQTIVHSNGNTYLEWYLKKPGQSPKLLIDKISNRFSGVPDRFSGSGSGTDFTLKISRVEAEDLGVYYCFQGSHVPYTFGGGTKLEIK	3150
